- PROTOCOL TEXT: NCI Yeast Anticancer Drug Screen. Data for the cln2 rad14 strain (AID 165);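 note: 0% = growth equal to vehicle treated cultures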
- MEASUREMENT CONDITIONS: S. cerevisiae cln2 rad14 strain, at 50.0 µM, active compounds read high
This is part of a sample that, as a whole, favours compounds with a hit. Of some 79,000 tested, about 15% had one in any assay. Calls of active or inactive are those of the source. Cut-off read from the data, not from the text of the source: active = growth inhibition above about 70%; inactive = the rest.
List of growth inhibition values.

INSERT INTO assay_data (compound, property_label, result) VALUES
  ('CCOC(=N)Cc1ccccc1', 'growth inhibition', '-10.8% (inactive)'),
  ('N#Cc1cc2c(n(C3OC(CO)C(O)C(O)C3O)c1=S)CCCCC2 (stereo unspecified)', 'growth inhibition', '-0.75% (inactive)'),
  ('CC(C)C1=C(Cc2ccccc2)C(=O)O/C1=C\c1cc(Cl)c(O)c(Cl)c1', 'growth inhibition', '25.6% (inactive)'),
  ('CC(C)(C)C(=O)C(=O)O', 'growth inhibition', '1.15% (inactive)'),
  ('CCc1n[nH]c(=O)n1N1C(=O)C2CCCCC2C1=O (stereo unspecified)', 'growth inhibition', '6.5% (inactive)');

Q. Note down growth inhibition recorded for `CCCCCCCCSC(SCCCCCCCC)=C1C(=O)N(c2ccccc2)N=C1C`
A. 19.6% (inactive)

Q. Note down growth inhibition recorded for `CCOC(=O)/C(Cl)=C1\SN(C(=O)OCC)N=C1C`
A. 54.7% (inactive)

Q. Note down growth inhibition recorded for `CCOC(=O)c1cnc2cc3c(cc2c1Nc1cccc(C)c1)OCO3`
A. -57.8% (inactive)

Q. Note down growth inhibition recorded for `CCCCCCCC(=O)N(CC)CC`
A. -17.1% (inactive)

Q. Note down growth inhibition recorded for `COc1ccccc1Nc1nc(N)nc(N)c1N`
A. -3.75% (inactive)

Q. Note down growth inhibition recorded for BrC1C2CC/C=C\CCC12 (stereo unspecified)
A. 11.6% (inactive)

Q. Note down growth inhibition recorded for CN(C)c1ccc(C(c2cc3c(cc2O)OCO3)N2CCN(C(c3ccc(N(C)C)cc3)c3cc4c(cc3O)OCO4)CC2)cc1 (stereo unspecified)
A. 9.3% (inactive)

###

List of growth inhibition values.
- PROTOCOL TEXT: NCI Yeast Anticancer Drug Screen. Data for the cln2 rad14 strain (AID 165);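 note: 0% = growth equal to vehicle treated cultures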
- MEASUREMENT CONDITIONS: S. cerevisiae cln2 rad14 strain, at 50.0 µM, active compounds read high
The panel holds about 79,000 compounds, 15% with a hit somewhere; the sample as a whole holds those more often.
Express the result in % but write the number alone.

Sample records with growth inhibition:
INSERT INTO results (compound, unit_info, result_number) VALUES
  ('CSSC(SSC)C(SSC)SSC', '%', 1.4),
  ('O=C(/C=C(/CC(=O)c1ccccc1)C(=O)c1ccccc1)c1ccccc1', '%', -22.1),
  ('CC(C)COC1=CC(=O)c2ccccc2C1=O', '%', -1.05),
  ('Cc1nc(Nc2ccccc2)c(C#N)c(=O)[nH]1', '%', -10.1),
  ('ClC(Cc1ccccc1)(c1ccccc1)c1ccccc1', '%', -26.9);

Q. Note down growth inhibition recorded for `C/C=C/c1ccc(OCC)c(OC)c1`
A. -8.8

Q. Note down growth inhibition recorded for CCCCC1(C(NC(=O)c2ccccc2Cl)c2ccncc2)C(=O)N(c2ccccc2)N(c2ccccc2)C1=O (configuration not stated)
A. 6.35
